System: rat primary hepatocytes
Counter-ions that a name gives are not always drawn.
reported metric: MMP assays efficacy (%) Rat Hepatocytes
Give bare numbers, in %.

Take a look at these entries with their results.
- molecule: "CCN(CC)C(=S)[S-].CCN(CC)C(=S)[S-].[Zn+2] [Zinc diethyldithiocarbamate]"
  assay system: "rat primary hepatocytes"
  reported metric: "MMP assays efficacy (%) Rat Hepatocytes"
  experimental result: -95
- molecule: "O=P(Oc1ccccc1)(Oc1ccccc1)Oc1ccccc1 [Triphenyl phosphate]"
  assay system: "rat primary hepatocytes"
  reported metric: "MMP assays efficacy (%) Rat Hepatocytes"
  experimental result: -56
- molecule: "CN(C)C(=S)SSC(=S)N(C)C [THIRAM]"
  assay system: "rat primary hepatocytes"
  reported metric: "MMP assays efficacy (%) Rat Hepatocytes"
  experimental result: -96
- molecule: "N=C(N)NN=C(/C=C/c1ccc([N+](=O)[O-])o1)/C=C/c1ccc([N+](=O)[O-])o1 [Nitrovin]"
  assay system: "rat primary hepatocytes"
  reported metric: "MMP assays efficacy (%) Rat Hepatocytes"
  experimental result: -89
- molecule: "O=S(=O)(Oc1ccc(Cl)cc1)c1ccc(Cl)cc1 [Chlorfenson]"
  assay system: "rat primary hepatocytes"
  reported metric: "MMP assays efficacy (%) Rat Hepatocytes"
  experimental result: -62

For every item in the list below, what is its measured MMP assays efficacy (%) Rat Hepatocytes?
1. CN(C)c1ccc(C(=C2C=CC(=[N+](C)C)C=C2)c2ccccc2)cc1.CN(C)c1ccc(C(=C2C=CC(=[N+](C)C)C=C2)c2ccccc2)cc1.O=C(O)C(=O)O.O=C([O-])C(=O)O.O=C([O-])C(=O)O [Malachite green oxalate]
2. COc1cc(NS(C)(=O)=O)ccc1Nc1c2ccccc2nc2ccccc12 [Amsacrine hydrochloride]
3. O=P(OCC(Br)CBr)(OCC(Br)CBr)OCC(Br)CBr (stereo not drawn) [Tris(2,3-dibromopropyl) phosphate]
4. [OH-].c1cc[c]([Sn+]([c]2ccccc2)[c]2ccccc2)cc1 [Triphenyltin hydroxide]
5. Oc1c(Cl)c(Cl)cc(Cl)c1Cl [2,3,5,6-Tetrachlorophenol]
6. CCc1oc2ccccc2c1C(=O)c1cc(Br)c(O)c(Br)c1 [Benzbromarone]
7. CC1=Nc2ccc3ccccc3c2C1(C)C [1,1,2-Trimethyl-1H-benzo[e]indole]

[-44, -110, -91, -118, -77, -82, -100]

###

For each entry below, report its II-sub, % of control (O2 consumption rate) value.
Tested on: isolated rat liver mitochondria
Experiment: Oxygen consumption, Clark-type oxygen electrode
Assay type: biochemical
Conditions: 0.032 µM

Take a look at these entries with their results.
- compound: "O=C(Nc1ccc(Oc2ccc(Cl)cc2)c(Cl)c1)c1cc(I)cc(I)c1O [Rafoxanide, reference compound]"
  experimental result: "97 (20.0) % of control"
- compound: "O=C(Nc1ccc(Cl)cc1)Nc1ccc(Cl)c(Cl)c1 [Triclocarban]"
  experimental result: "93 (22.8) % of control"
- compound: "O=C(Nc1ccc([N+](=O)[O-])cc1Cl)c1cc(Cl)ccc1O [Niclosamide, reference compound]"
  experimental result: "132 (21.7) % of control"

Now consider a different compound.
The value of II-sub, % of control (O2 consumption rate) measured for the compound CCCCCC[C@H]1C(=O)O[C@H](C)[C@H](NC(=O)c2cccc(NC=O)c2O)C(=O)O[C@@H](C)[C@@H]1OC(=O)CC(C)C [Antimycin A, reference compound] turned out to be 67 (12.4) % of control

###

Tested on: rat primary hepatocytes
Experiment: MMP assay in rat primary hepatocytes
Conditions: rat hepatocytes; mean ± SD of three experiments
reported metric: MMP assays efficacy (%) Rat Hepatocytes

Take a look at these entries with their results.
- molecule: "CC(C)(C)OC(=O)c1ccc(O)cc1 [tert-Butyl 4-hydroxybenzoate]"
  assay system: "rat primary hepatocytes"
  reported metric: "MMP assays efficacy (%) Rat Hepatocytes"
  experimental result: "-80±10%"
- molecule: "CCC(=O)Oc1ccc(/C(CC)=C(\\CC)c2ccc(OC(=O)CC)cc2)cc1 [Diethylstilbestrol dipropionate]"
  assay system: "rat primary hepatocytes"
  reported metric: "MMP assays efficacy (%) Rat Hepatocytes"
  experimental result: "-38±22%"
- molecule: "CC1=NN(c2ccccc2)C(=O)C1"
  assay system: "rat primary hepatocytes"
  reported metric: "MMP assays efficacy (%) Rat Hepatocytes"
  experimental result: "-62±9%"
- molecule: "Cc1cc2c(cc1C(F)(F)F)N(C(=O)Nc1ccc(Oc3cccnc3C)nc1)CC2.Cl"
  assay system: "rat primary hepatocytes"
  reported metric: "MMP assays efficacy (%) Rat Hepatocytes"
  experimental result: "-98±10%"
- molecule: "NNc1nc(-c2ccccc2)cs1 [2-Hydrazino-4-phenylthiazole]"
  assay system: "rat primary hepatocytes"
  reported metric: "MMP assays efficacy (%) Rat Hepatocytes"
  experimental result: "-81±30%"
- molecule: "CCCC(c1cc(C(C)(C)C)c(O)cc1C)c1cc(C(C)(C)C)c(O)cc1C"
  assay system: "rat primary hepatocytes"
  reported metric: "MMP assays efficacy (%) Rat Hepatocytes"
  experimental result: "-61±15%"
- molecule: "O=C(c1ccccc1)c1cc(Cl)ccc1O"
  assay system: "rat primary hepatocytes"
  reported metric: "MMP assays efficacy (%) Rat Hepatocytes"
  experimental result: "-59±21%"
- molecule: "CCN(C(=O)N(CC)c1ccccc1)c1ccccc1 [N,Nφ-Diethylcarbanilide]"
  assay system: "rat primary hepatocytes"
  reported metric: "MMP assays efficacy (%) Rat Hepatocytes"
  experimental result: "-58±11%"

For every item in the list below, what is its measured MMP assays efficacy (%) Rat Hepatocytes?
1. O=C(Nc1cccc(C(F)(F)F)c1)c1cc(Br)cc(Br)c1O
2. CC(C)[C@@H](C)/C=C/[C@@H](C)[C@H]1CC[C@H]2/C(=C/C=C3\C[C@@H](O)CC[C@@H]3C)CCC[C@]12C [Dihydrotachysterol]
3. C=C1CC[C@H](O)C/C1=C/C=C1\CCC[C@]2(C)[C@@H]([C@H](C)CCCC(C)(C)O)CC[C@@H]12
4. CCCCCCCC[N+](C)(CCCCCCCC)CCCCCCCC.O=S(=O)([O-])C(F)(F)F [Methyltrioctylammonium trifluoromethanesulfonate]
5. CCCOC(=O)c1cc(O)c(O)c(O)c1 [Propyl gallate]

["-74±9%", "inactive", "-66±31%", "-73±33%", "inactive"]

For every item in the list below, what is its measured MMP assays efficacy (%) Rat Hepatocytes?
1. Oc1ccc(Cc2ccccc2O)cc1 [2-(4-Hydroxybenzyl)phenol]
2. O=C1OC(OC(=O)c2cccnc2Nc2cccc(C(F)(F)F)c2)c2ccccc21 (stereo not drawn) [Talniflumate]
3. CCOc1ccc2[nH]cc(C(=O)NCc3ccccc3)c(=O)c2n1
4. O=Cc1c2ccccc2c(Cl)c2ccccc12
5. O=CC=C(c1ccccc1)c1ccccc1

1: inactive; 2: -85±2%; 3: -80±31%; 4: -47±21%; 5: -78±36%

###

For each entry below, report its II-sub, % of control (O2 consumption rate) value.
Test system: isolated rat liver mitochondria
Assay: Oxygen consumption, Clark-type oxygen electrode
Format: biochemical
Settings: 20 µM

Take a look at these entries with their results.
- molecule: "Nc1ccc(N)c2c1C(=O)c1ccccc1C2=O"
  assay system: "isolated rat liver mitochondria"
  experimental result: "100 (27.1) % of control"
- molecule: "CO[C@H]1/C=C/O[C@@]2(C)Oc3c(C)c(O)c4c(O)c(c(/C=N/N5CCN(C6CCCC6)CC5)c(O)c4c3C2=O)NC(=O)/C(C)=C\\C=C\\[C@H](C)[C@H](O)[C@@H](C)[C@@H](O)[C@@H](C)[C@H](OC(C)=O)[C@@H]1C [Rifapentine, reference compound]"
  assay system: "isolated rat liver mitochondria"
  experimental result: "101 (24.8) % of control"
- molecule: "CCOCn1c(-c2ccc(Cl)cc2)c(C#N)c(Br)c1C(F)(F)F"
  assay system: "isolated rat liver mitochondria"
  experimental result: "281 (58.7) % of control"
- molecule: "CC(C)c1cccc(C(C)C)c1N1C(=O)c2ccc(O)cc2C1=O"
  assay system: "isolated rat liver mitochondria"
  experimental result: "166 (50.8) % of control"

Now consider a different molecule.
The value of II-sub, % of control (O2 consumption rate) measured for the molecule CCCCCC[C@H]1C(=O)O[C@H](C)[C@H](NC(=O)c2cccc(NC=O)c2O)C(=O)O[C@@H](C)[C@@H]1OC(=O)CC(C)C [Antimycin A, reference compound] turned out to be 32 (6.0) % of control

###

Quick record: MMP assays efficacy (%) Rat Hepatocytes, rat primary hepatocytes.
Answers are plain numbers, in %.

Take a look at these entries with their results.
- molecule: "NS(=O)(=O)C(F)(F)C(F)(F)C(F)(F)C(F)(F)C(F)(F)C(F)(F)C(F)(F)C(F)(F)F [Perfluorooctanesulfonamide]"
  assay system: "rat primary hepatocytes"
  unit symbol: "%"
  MMP assays efficacy (%) Rat Hepatocytes: -118
- molecule: "CCN1/C(=C/C=C/C=C/c2sc3ccccc3[n+]2CC)Sc2ccccc21 [Dithiazanine iodide]"
  assay system: "rat primary hepatocytes"
  unit symbol: "%"
  MMP assays efficacy (%) Rat Hepatocytes: -59
- molecule: "CN(C)S(=O)(=O)N(SC(F)(Cl)Cl)c1ccccc1"
  assay system: "rat primary hepatocytes"
  unit symbol: "%"
  MMP assays efficacy (%) Rat Hepatocytes: -59

For every item in the list below, what is its measured MMP assays efficacy (%) Rat Hepatocytes?
1. Oc1ccc(Cl)c(Cl)c1Cl
2. Cc1cc(O)c2c3c4c(cc(O)c13)C(C)(C)C(=O)c1c(O)cc(O)c(c1-4)C2=O
3. BrC1CCC(Br)C(Br)CCC(Br)C(Br)CCC1Br (centres unmarked)
4. O=C(N/N=C/c1ccc([N+](=O)[O-])o1)c1ccc(O)cc1 [Nifuroxazide]

-59
-101
-89
-91
